Just for reference, patent US11384078B2 is where these values come from.

# System: L. donovani HU3 strain in mouse peritoneal macrophages
# Assay overview: Assay for inhibition of parasitemia of Leishmania donovani in mouse macrophages (SYBR Green nuclei count, high-content imaging)
# Type: cell-based
# Condition context: Leishmania donovani, Peritoneal macrophage, L. donovani in mouse peritoneal macrophages; read-out: L. donovani in Mouse Macrophages EC50
Measured property: pEC50
Hey, just a heads up that pEC50 is the negative log base 10 of the concentration in molar.

Which pEC50 is listed for "O=C(Nc1ccc(F)c(-n2cc3cc(N4CCC5(CCOCC5)C4)cnc3n2)c1)N1CC(F)C1" ?
7.68

Try this compound next: "O=C(Nc1ccc(F)c(-n2cc3cc(N4CC(F)C4)cnc3n2)c1)N1CCC1"
8.10

How about "O=C(Nc1ccc(F)c(-n2cc3cc(CC(F)(F)F)cnc3n2)c1)N1CC[C@@H](F)C1" ?
8.35

Now consider "O=C(Nc1ccc(F)c(-n2cc3cc(C4CCOCC4)cnc3n2)c1)N1CC(F)(F)C1" .
8.00

Same question, "Cc1nc(C(=O)Nc2ccc(F)c(-n3cc4cc(C(C)C)cnc4n3)c2)c(C(F)(F)F)o1" this time
5.55

Also, "Cc1nc(C2CC2)oc1C(=O)Nc1ccc(F)c(-n2cc3cc(C(C)C)cnc3n2)c1" please.
6.03

And then "O=C(Nc1ccc(F)c(-n2cc3cc(C(F)(F)F)cnc3n2)c1)N1CC(F)(F)C1" , what is it?
7.35

Also need "O=C(Nc1ccc(F)c(-n2cc3cc(N4CCOCC4)cnc3n2)c1)N1CC[C@@H](F)C1" , thanks.
8.07

Try the compound "O=C(Nc1ccc(F)c(-n2cc3cc(N4CC(F)(F)C4)cnc3n2)c1)N1CC(F)C1"
8.40

Then "O=C(Nc1ccc(F)c(-n2cc3cc(N4CCC4)cnc3n2)c1)N1CC[C@@H](F)C1" ?
8.10

Let us now turn to "O=C(Nc1ccc(Cl)c(-n2cc3cc(-c4ccccn4)cnc3n2)c1)N1CCC1"
8.05

Please give the result for "O=C(Nc1ccc(F)c(-n2cc3cc(Br)cnc3n2)c1)c1ccco1" too.
6.80

Similarly, "O=C(Nc1ccc(F)c(-n2cc3cc(N4CC(F)C4)cnc3n2)c1)N1CC(F)C1" ?
8.30

What about this compound? "[2H]C([2H])([2H])N(c1cnc2nn(-c3cc(NC(=O)N4CC(F)(F)C4)ccc3F)cc2c1)C([2H])([2H])[2H]"
7.92

Next entry: "O=C(Nc1ccc(F)c(-n2cc3cc(N4C[C@@H]5C[C@H]4CO5)cnc3n2)c1)N1CC(F)C1"
7.96

Item: "CC(C)c1cnc2nn(-c3cc(NC(=O)CCCC(F)(F)F)ccc3F)cc2c1"
6.18

Subsequent entry: "O=C(Nc1ccc(Cl)c(-n2cc3cc(N4CC5(CC5)C4)cnc3n2)c1)N1CCC1"
7.33

Field entry: "Cc1nc(COC(C)(C)C)oc1C(=O)Nc1ccc(F)c(-n2cc3cc(C(C)C)cnc3n2)c1"
5.62

Also check "CC(C)(C)Cc1cnc2nn(-c3cc(NC(=O)N4CC(F)C4)ccc3F)cc2c1"
8.19

How about "O=C(Nc1cccc(-n2cc3cc(N4CC5(CC5)C4)cnc3n2)c1)N1CCC1" ?
7.52

Let us now turn to "Cc1nc(C)c(C(=O)Nc2ccc(F)c(-n3cc4cc(C5CCC5)cnc4n3)c2)o1"
6.51

Consider next the compound "O=C(Nc1ccc(F)c(-n2cc3cc(-c4ccccn4)cnc3n2)c1)C1=CCC1" in the same way.
6.67

Here is the next compound: "O=C(Nc1ccc(F)c(-n2cc3cc(N4CCN(CC(F)(F)F)CC4)cnc3n2)c1)N1CC(F)C1"
8.05

Another compound: "CC(C)OC(=O)Nc1cnc2nn(-c3cc(NC(=O)N4CC(F)(F)C4)ccc3F)cc2c1"
7.92

Okay, and CC(=O)N1CCC1c1cnc2nn(-c3cc(NC(=O)N4CC(F)C4)ccc3F)cc2c1 (centres unmarked) ?
4.86

Okay, and CCC(C)c1cnc2nn(-c3cc(NC(=O)N4CC(F)(F)C4)ccc3F)cc2c1 (centres unmarked) ?
6.60

For "N#CC1CN(c2cnc3nn(-c4cc(NC(=O)N5CC(F)C5)ccc4F)cc3c2)C1" then?
7.54

Cool, now "CC(C)c1cnc2nn(-c3cc(NC(=O)c4cnc(C5CC5)o4)ccc3F)cc2c1"
6.77

Queued: "Cc1nc(C(=O)Nc2ccc(F)c(-n3cc4cc(C(C)C)cnc4n3)c2)oc1C"
5.44

What do we get for "CC(C)CCc1cnc2nn(-c3cc(NC(=O)N4CC[C@@H](F)C4)ccc3F)cc2c1" ?
7.96

Queued: "O=C(Nc1ccc(F)c(-n2cc3cc(-c4ccccn4)cnc3n2)c1)c1cnccn1"
7.48

Entry to check: "O=C(Nc1ccc(F)c(-n2cc3cc(C4CC4)cnc3n2)c1)c1ccco1"
7.46
